Kd reference
Molecular target: Nucleic Acid
Assay: Binding affinity to human pre-hsa-mir-155 miRNA assessed as increase in fluorescence after 30 mins by fluorimetry
Type: nucleic-acid assay
The reply must contain the numeric value and, after it, the unit.

compound	system	measurement-name	result
CN1CCN(c2ccc3[nH]c(-c4ccc5[nH]c(-c6ccc(O)cc6)nc5c4)nc3c2)CC1	Nucleic Acid	Kd	14 µM

From here, focus on the item given below.
Quick one: Kd for CC[n+]1c(-c2ccccc2)c2cc(N)ccc2c2ccc(N)cc21 [HOMIDIUM BROMIDE] ?
5 µM

* * *

Tested on: Nucleic Acid
Experiment: Displacement of ethidium bromide from human pre-hsa-mir-155 miRNA after 30 mins
Assay type: nucleic-acid assay
The source made the active and inactive calls. The calls are words filed in the database; no cut-off is given here.
measurement-name: Activity

molecule	Activity
Cc1c2c(c(O)c3c(O)ccc(Cl)c13)C(=O)[C@]1(O)C(=O)C(C(N)=O)=C(O)[C@H](N(C)C)[C@@H]1C2.Cl	inactive
CN(C)[C@@H]1C(O)=C(C(N)=O)C(=O)[C@@]2(O)C(O)=C3C(=O)c4c(O)ccc(Cl)c4[C@@H](O)[C@H]3C[C@@H]12.Cl [DEMECLOCYCLINE HYDROCHLORIDE]	inactive
CN(C)[C@H]1C(O)=C(C(N)=O)C(=O)[C@@]2(O)C(O)=C3C(=O)c4c(O)ccc(Cl)c4[C@@](C)(O)[C@H]3C[C@@H]12	inactive
CN(C)[C@@H]1C(O)=C(C(N)=O)C(=O)[C@@]2(O)C(O)=C3C(=O)c4c(O)cccc4[C@@](C)(O)[C@H]3C[C@@H]12	inactive

From here, focus on the item given below.
Quick one: Activity for Cc1c2c(c(O)c3c(O)cccc13)C(=O)[C@]1(O)C(=O)C(C(N)=O)=C(O)[C@@H](N(C)C)[C@@H]1C2.Cl [ANHYDROTETRACYCLINE HYDROCHLORIDE] ?
inactive
